growth inhibition values for the compounds below.
experiment: NCI Yeast Anticancer Drug Screen. Data for the mec2-1 strain (AID 157); settings: S. cerevisiae mec2-1 strain, at 50.0 µM, hits give high values
The panel holds about 79,000 compounds, 15% with a hit somewhere; the sample as a whole holds those more often.
Number in %, nothing else.

Here's what some known entries look like.
Query string: Could you please provide reported growth inhibition for COC(=O)c1cc2c(n1S(=O)(=O)c1ccc(C)cc1)C(=O)C(=O)c1[nH]cc(C(=O)OCc3ccccc3)c1-2 ? Thanks!
Result string: 3.7

Query string: Could you please provide reported growth inhibition for CC(C)(C)c1ccccc1OC(=O)Nc1ccc(F)cc1 ? Thanks!
Result string: 7.1

Query string: Could you please provide reported growth inhibition for CC(C)C(C(N)=O)C(C)C ? Thanks!
Result string: -6.4

Query string: Could you please provide reported growth inhibition for C/C=C(\C)c1cc(O)c(C)c2c1Oc1cc(O)c(Cl)c(C)c1C(=O)O2 ? Thanks!
Result string: 94.8

Query string: Could you please provide reported growth inhibition for O=C1CC(=C=Nc2ccccc2)C(=O)N1c1ccccc1 ? Thanks!
Result string: 3.85

Others:
Query string: Could you please provide reported growth inhibition for CN(C)c1nc(=O)c2c(ccc3ccccc32)o1 ? Thanks!
Result string: 24.3

Query string: Could you please provide reported growth inhibition for CCC(C)N(C(=O)C(C)Br)C(C)CC (centres undefined) ? Thanks!
Result string: -9.4

Query string: Could you please provide reported growth inhibition for Cc1cc(C)c(N)c(C(=O)O)c1 ? Thanks!
Result string: -34.6

Query string: Could you please provide reported growth inhibition for CCOc1ccc(NC(=O)Oc2ccc(-c3ccccc3)cc2)cc1 ? Thanks!
Result string: 33.5

Query string: Could you please provide reported growth inhibition for CCCCCC(/C=N/Nc1ccccn1)=C\c1ccccc1 ? Thanks!
Result string: -2.1

Query string: Could you please provide reported growth inhibition for COC(=O)[C@]1(C)CCC[C@@]2(C)[C@H]1CC=C1C=C(C(C)C)CC[C@@H]12 ? Thanks!
Result string: 1.15

Query string: Could you please provide reported growth inhibition for O=C1c2ccccc2OC(Cl)(c2ccccc2)C1Cl (centres undefined) ? Thanks!
Result string: -2.4

Query string: Could you please provide reported growth inhibition for C/C(=C/C=C(c1ccccc1)c1ccccc1)C1CCC2C3CCC4CC5CCC4(C)C3(O5)C(=O)CC12C (centres undefined) ? Thanks!
Result string: 60.6

Query string: Could you please provide reported growth inhibition for O=C1OC(c2cccc(Cl)c2)=N/C1=C\c1ccc(O)cc1 ? Thanks!
Result string: 9.85

Query string: Could you please provide reported growth inhibition for CCN(CC)[Si](C)(C)N(CC)CC ? Thanks!
Result string: -24.4

---

assay: NCI Yeast Anticancer Drug Screen. Data for the sgs1 mgt1 strain (AID 161);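 further: 0% = growth of cultures given vehicle only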; conditions: S. cerevisiae sgs1 mgt1 strain, at 50.0 µM, hits give high values
Compounds without any hit were thinned out: in the full panel of roughly 79,000, 15% have a hit.
growth inhibition values for the compounds below.
Number in %, nothing else.

Here's what some known entries look like.
Query string: Could you please provide reported growth inhibition for OC/C=C(\I)CCCOCOCc1ccccc1 ? Thanks!
Result string: -7.35

Query string: Could you please provide reported growth inhibition for CN(C)CCC1(C2=CCCC2)CC/C(=C\c2ccccc2)C1=O (stereo unspecified) ? Thanks!
Result string: -5.6

Query string: Could you please provide reported growth inhibition for N#CC(C(=O)O)=C1CCCCCC1 ? Thanks!
Result string: 3.7

Query string: Could you please provide reported growth inhibition for C=CCOC(=O)C1(O)c2ccccc2NC(=S)N1CC=C (stereo unspecified) ? Thanks!
Result string: 5.2

Query string: Could you please provide reported growth inhibition for COc1ccc(NC(=O)CSc2nnc(-c3ccc(NC(C)=O)cc3)o2)cc1 ? Thanks!
Result string: 35.6

Others:
Query string: Could you please provide reported growth inhibition for Fc1ccc(Cl)c(-c2nc3ccccc3[nH]2)c1 ? Thanks!
Result string: 2.85

Query string: Could you please provide reported growth inhibition for CC(C)=CCSC(N)N ? Thanks!
Result string: 24.1

---

assay: NCI Yeast Anticancer Drug Screen. Data for the sgs1 mgt1 strain (AID 161);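 further: 0% = growth of cultures given vehicle only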; conditions: S. cerevisiae sgs1 mgt1 strain, at 50.0 µM, hits give high values
This is part of a sample that, as a whole, favours compounds with a hit. Of some 79,000 tested, about 15% had one in any assay.
attribute_measured: growth inhibition (%)
Number in %, nothing else.

Query string: Could you please provide reported growth inhibition for Brc1ccc(C(c2ccc(Br)cc2)C(Br)(Br)Br)cc1 ? Thanks!
Result string: 1.9

Others:
Query string: Could you please provide reported growth inhibition for Cc1cccc(C)c1NC(=O)N(Cc1ccccc1)Cc1ccccc1 ? Thanks!
Result string: 20.6

Query string: Could you please provide reported growth inhibition for COc1ccc(-c2nc(N)nc(-c3cc(C)ccc3O)c2Cl)cc1 ? Thanks!
Result string: 5.3

Query string: Could you please provide reported growth inhibition for CCCCCCC(=O)C(N)Cc1ccccc1 (centres undefined) ? Thanks!
Result string: 3.7

Query string: Could you please provide reported growth inhibition for CSc1nc2c(c(=O)n1C)N=C(c1ccc([N+](=O)[O-])cc1)CC(c1ccccc1)N2 (centres undefined) ? Thanks!
Result string: 17.8

Query string: Could you please provide reported growth inhibition for NC(N)=NS(=O)(=O)c1ccc(NC(=O)c2cccc3c(N)c4ccccc4nc23)cc1 ? Thanks!
Result string: -0.2

---

Assay: NCI Yeast Anticancer Drug Screen. Data for the mec2-1 strain (AID 157)
Conditions: S. cerevisiae mec2-1 strain, at 50.0 µM, hits give high values
Description: Growth inhibition of yeast strains with defined genetic alterations is measured as a screen for potential anti-cancer activity. Selected strains with alterations in DNA damage repair or cell cycle control were exposed to compounds and growth inhibition was measured relative to vehicle treated controls. The strain used in this assay is mec2-1
Compounds without any hit were thinned out: in the full panel of roughly 79,000, 15% have a hit.
growth inhibition values for the compounds below.
Number in %, nothing else.

Query string: Could you please provide reported growth inhibition for c1ccn2cncc2c1 ? Thanks!
Result string: 17

Query string: Could you please provide reported growth inhibition for CSC(=S)n1nc(-c2ccccc2)c(N=Nc2cccc(Cl)c2Cl)c1-c1ccccc1 ? Thanks!
Result string: 95.5

Query string: Could you please provide reported growth inhibition for COc1ccccc1NC(=O)C1=C(C)NC(C)=C(C(=O)Nc2ccccc2OC)C1c1c(Cl)cccc1Cl ? Thanks!
Result string: 3.75

Others:
Query string: Could you please provide reported growth inhibition for Cc1cc(NCCN(C(C)C)C(C)C)nc(Nc2nc3cc(Cl)c(Cl)cc3[nH]2)n1 ? Thanks!
Result string: 39.2

Query string: Could you please provide reported growth inhibition for COc1ccc(Nc2nnc(-c3nsc4ccccc34)s2)cc1 ? Thanks!
Result string: -28.4

Query string: Could you please provide reported growth inhibition for CCCSc1ccc2c3c(cccc13)C(=O)OC2=O ? Thanks!
Result string: 42.9

Query string: Could you please provide reported growth inhibition for N#CCCSc1nnc(N)s1 ? Thanks!
Result string: -7.9

Query string: Could you please provide reported growth inhibition for CCC1(C)NN=C2C(=CC=C3NNC(C)(CC)N32)n2cccc21 (stereo not given) ? Thanks!
Result string: 8.8

Query string: Could you please provide reported growth inhibition for CC1=C/C(=C(/c2cccc(S(=O)(=O)O)c2)c2cc(C)c(O)c(C(=O)O)c2)C=C(C(=O)O)C1=O ? Thanks!
Result string: -21.8

Query string: Could you please provide reported growth inhibition for Cc1ccc(S(=O)(=O)NN=C2C(C)CC(C(C)(C)C)CC2C)cc1 (stereo not given) ? Thanks!
Result string: 26

Query string: Could you please provide reported growth inhibition for O=C(Nc1ccccc1)C1CC2C=CC1C2 (stereo not given) ? Thanks!
Result string: -4.3

Query string: Could you please provide reported growth inhibition for Cc1ccc(NC(=O)c2ccccc2N)cc1 ? Thanks!
Result string: -8.5

Query string: Could you please provide reported growth inhibition for O=C(O)CNC(CO)(CO)CO ? Thanks!
Result string: -60.8

Query string: Could you please provide reported growth inhibition for CC1=CN2C(c3ccc(Cl)cc3)=NON(c3ccc(C)cn3)C2C=C1 (stereo not given) ? Thanks!
Result string: -4.75

Query string: Could you please provide reported growth inhibition for C/C(CC(O)(C(F)(F)F)C(F)(F)F)=N\O ? Thanks!
Result string: -51.2

Query string: Could you please provide reported growth inhibition for C=C(C)C#CC(O)(C(=O)OC1CCN(C)CC1)C(C)C (stereo not given) ? Thanks!
Result string: -14

Query string: Could you please provide reported growth inhibition for CC(=O)OCCN(C)C ? Thanks!
Result string: -1.85

Query string: Could you please provide reported growth inhibition for COC(=O)C1=C(CO)C2C=CC1C2 (stereo not given) ? Thanks!
Result string: 26.1

Query string: Could you please provide reported growth inhibition for O=C(COc1ccc(Cl)cc1)N(c1ccccc1)C1CCCCC1 ? Thanks!
Result string: 98.3

Query string: Could you please provide reported growth inhibition for Cc1c([N+](=O)[O-])cc(C(C)C)c(O)c1[N+](=O)[O-] ? Thanks!
Result string: 25.3

Query string: Could you please provide reported growth inhibition for O=S(=O)(O)c1ccc2c(N=Nc3cccc4ccccc34)c(O)c(S(=O)(=O)O)cc2c1 ? Thanks!
Result string: 4.9

Query string: Could you please provide reported growth inhibition for C/C(=N/NC(=S)N1CCCCCC1)c1ccccc1O ? Thanks!
Result string: -40.4

Query string: Could you please provide reported growth inhibition for COc1cccc(N2C(Cl)C(=O)C2c2c[nH]c3ccccc23)c1 (stereo not given) ? Thanks!
Result string: -37.2
